# Test System: T1, Anti-CD28 Fab (SEQ ID NOs: 696, 697)
# T1 construct: In the phage ELISA the Fab was biotinylated and captured on neutravidin coated plates
# T1 sequence (VH, as listed by the source, chain 1 of 2): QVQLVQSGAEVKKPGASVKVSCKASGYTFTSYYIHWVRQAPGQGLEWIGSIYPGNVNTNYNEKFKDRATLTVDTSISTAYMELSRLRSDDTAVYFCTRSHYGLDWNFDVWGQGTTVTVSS
# T1 sequence (VL, as listed by the source, chain 2 of 2): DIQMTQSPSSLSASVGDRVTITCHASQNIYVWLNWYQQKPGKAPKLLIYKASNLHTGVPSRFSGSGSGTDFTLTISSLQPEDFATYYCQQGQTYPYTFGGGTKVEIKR
# Experimental Protocol: phage binding ELISA; Fab-coated wells pre-incubated with CD28 antigen as competitor, anti-M13 HRP detection;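 also: crude clonal phage supernatants from panned colonies added to wells after blocking buffer plus CD28 treatment, bound phage measured after a brief incubation and washing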
Where no end group is shown, it is not given here.
Recorded Anti-CD28 Fab signal in the presence of CD28 (phage binding ELISA) values for a group of binders are listed next.
Enter a number only.

YCEGHSLMYMWKCL (cysteine pairing not given here; also: displayed fused to phage pIII protein, fusion end and linker not given here, Tested as clonal phage supernatant; not shown: fused to the pIII filament protein of the bacteriophage) [Phage-924 (Peptide-87 library clone, SEQ ID NO: 1240)] | 0.08

Prompt line: Which value of Anti-CD28 Fab signal in the presence of CD28 (phage binding ELISA) has been reported for YCDGHSVEYMEKCL (cysteine pairing not given here; also: displayed fused to phage pIII protein, fusion end and linker not given here, Tested as clonal phage supernatant; not shown: fused to the pIII filament protein of the bacteriophage) [Phage-926 (Peptide-87 library clone, SEQ ID NO: 1242)] in the records?
Response line: 0.09
